ASSAYED_SYSTEM: human recombinant, purified wild type His-B-Raf protein kinase (Homo sapiens, UniProt P15056)
Sequence (P15056 whole entry): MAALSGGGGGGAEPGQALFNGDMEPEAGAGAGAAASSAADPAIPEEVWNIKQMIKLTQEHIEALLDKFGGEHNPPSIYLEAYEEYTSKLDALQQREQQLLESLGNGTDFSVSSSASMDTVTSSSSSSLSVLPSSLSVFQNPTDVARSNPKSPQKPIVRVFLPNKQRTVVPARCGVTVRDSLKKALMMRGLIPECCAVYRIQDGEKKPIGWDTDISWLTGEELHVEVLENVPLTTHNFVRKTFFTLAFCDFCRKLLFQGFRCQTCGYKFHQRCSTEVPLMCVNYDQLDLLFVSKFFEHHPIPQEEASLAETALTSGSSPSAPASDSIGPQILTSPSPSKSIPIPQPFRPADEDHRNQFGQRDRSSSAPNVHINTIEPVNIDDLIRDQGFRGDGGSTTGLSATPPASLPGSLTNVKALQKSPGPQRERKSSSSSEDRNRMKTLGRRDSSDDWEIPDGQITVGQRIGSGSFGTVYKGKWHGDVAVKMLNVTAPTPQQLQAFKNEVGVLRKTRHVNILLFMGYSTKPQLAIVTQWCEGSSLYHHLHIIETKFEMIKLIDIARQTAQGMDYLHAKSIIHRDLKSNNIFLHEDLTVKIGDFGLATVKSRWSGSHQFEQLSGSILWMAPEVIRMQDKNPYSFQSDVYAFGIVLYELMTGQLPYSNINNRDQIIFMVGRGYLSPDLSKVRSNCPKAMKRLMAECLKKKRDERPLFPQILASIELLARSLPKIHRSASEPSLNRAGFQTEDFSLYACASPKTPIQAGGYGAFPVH
ASSAY_OVERVIEW: B-Raf in vitro ELISA assay
ASSAY_CONDITIONS: phosphorylation of MEK1; 2.5 nM B-Raf, 0.15 µM MEK1, 10 µM ATP
MEASUREMENT_TYPE: pIC50
Value format note: pIC50 is -log10 of concentration (mol/L); just state the number.

# input Could you please provide reported pIC50 for Cc1ccc(NC(=O)c2cccc3c2OCC3)cc1C(=O)Nc1cccnc1 [Example 9] ? Thanks!
# output 5.97
